Molecular target: proMMP9(20-445;ΔFnII) (SEQ ID NO:6) (Homo sapiens, UniProt P14780, DEL216-390)
Construct: start methionine (N)
Sequence (P14780 with tags, fused parts or gaps DEL216-390): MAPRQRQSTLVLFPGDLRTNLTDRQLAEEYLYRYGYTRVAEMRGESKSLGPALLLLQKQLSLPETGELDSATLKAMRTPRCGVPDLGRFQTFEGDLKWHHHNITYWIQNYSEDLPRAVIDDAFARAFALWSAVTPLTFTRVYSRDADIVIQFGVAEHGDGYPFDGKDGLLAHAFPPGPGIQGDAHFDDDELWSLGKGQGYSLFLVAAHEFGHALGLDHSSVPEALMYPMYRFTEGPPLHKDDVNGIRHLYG
Experiment: ThermoFluor binding assay with proMMP9(20-445;ΔFnII)
Method: The ThermoFluor® (TF) assay is a 384-well plate-based binding assay that measures thermal stability of proteins (Biomol Screen 2001, 6, 429-40; Biochemistry 2005, 44, 5258-66). The experiments were carried out using instruments available from Johnson & Johnson Pharmaceutical Research & Development, LLC. TF dye used in all experiments was […] (1,8-ANS) (Invitrogen: A-47). […]
pKd: −log10 of the molar value.
pKd: recorded values
test readout: pKd

- cpd smiles: "COc1ccc(S(N)(=O)=O)cc1Nc1nc2c(ccc3ncn(C)c32)s1"
  test readout: "pKd"
  observed result: "< 4.02"
- cpd smiles: "COc1ccc(S(C)(=O)=O)cc1Nc1nc2c(ccc3c2cnn3CCC(C)C)s1"
  test readout: "pKd"
  observed result: "< 4.02"
- cpd smiles: "Cn1cnc2c3nc(Nc4cccnc4)sc3ccc21"
  test readout: "pKd"
  observed result: "< 4.02"
- cpd smiles: "Nc1nc2c(ccc3sc(Nc4cccc(C(=O)O)c4)nc32)[nH]1"
  test readout: "pKd"
  observed result: "< 4.02"
- cpd smiles: "COc1ccc(S(C)(=O)=O)cc1Nc1nc2c(ccc3[nH]ncc32)s1"
  test readout: "pKd"
  observed result: "< 4.02"

====

Target: proMMP9(20-445;ΔFnII) (SEQ ID NO:6) (Homo sapiens, UniProt P14780, DEL216-390)
Construct: start methionine (N)
Assay: ThermoFluor binding assay with proMMP9(20-445;ΔFnII)
Procedure: The ThermoFluor® (TF) assay is a 384-well plate-based binding assay that measures thermal stability of proteins (Biomol Screen 2001, 6, 429-40; Biochemistry 2005, 44, 5258-66). The experiments were carried out using instruments available from Johnson & Johnson Pharmaceutical Research & Development, LLC. TF dye used in all experiments was […] (1,8-ANS) (Invitrogen: A-47). […]
Lab note: compare Kd with 1000 nM, writing label 1 if less and label 0 if equal or more.

- cpd smiles: "COc1ccc(C#N)cc1Nc1nc2c(ccc3c2cnn3C)s1"
  assigned label: "label 0"
- cpd smiles: "CC(C)Oc1ccncc1Nc1nc2c(ccc3c2ncn3C)s1"
  assigned label: "label 1"
- cpd smiles: "Cn1cnc2c(Nc3nc4c(ccc5c4ncn5C)s3)cccc21"
  assigned label: "label 0"
- cpd smiles: "COc1ccc(C)cc1Nc1nc2c(ccc3c2ncn3C)s1"
  assigned label: "label 0"
- cpd smiles: "COc1ccc(C(N)=O)cc1Nc1nc2c(ccc3cnccc32)s1"
  assigned label: "label 1"

====

biological target: full-length proMMP9(1-707) activation by catalytic MMP3 (Homo sapiens, UniProt P14780, R574P); construct: MMP3: E. coli; experiment: proMMP9/MMP3 P126 Activation Assay
Sequence (P14780 20-707 R574P): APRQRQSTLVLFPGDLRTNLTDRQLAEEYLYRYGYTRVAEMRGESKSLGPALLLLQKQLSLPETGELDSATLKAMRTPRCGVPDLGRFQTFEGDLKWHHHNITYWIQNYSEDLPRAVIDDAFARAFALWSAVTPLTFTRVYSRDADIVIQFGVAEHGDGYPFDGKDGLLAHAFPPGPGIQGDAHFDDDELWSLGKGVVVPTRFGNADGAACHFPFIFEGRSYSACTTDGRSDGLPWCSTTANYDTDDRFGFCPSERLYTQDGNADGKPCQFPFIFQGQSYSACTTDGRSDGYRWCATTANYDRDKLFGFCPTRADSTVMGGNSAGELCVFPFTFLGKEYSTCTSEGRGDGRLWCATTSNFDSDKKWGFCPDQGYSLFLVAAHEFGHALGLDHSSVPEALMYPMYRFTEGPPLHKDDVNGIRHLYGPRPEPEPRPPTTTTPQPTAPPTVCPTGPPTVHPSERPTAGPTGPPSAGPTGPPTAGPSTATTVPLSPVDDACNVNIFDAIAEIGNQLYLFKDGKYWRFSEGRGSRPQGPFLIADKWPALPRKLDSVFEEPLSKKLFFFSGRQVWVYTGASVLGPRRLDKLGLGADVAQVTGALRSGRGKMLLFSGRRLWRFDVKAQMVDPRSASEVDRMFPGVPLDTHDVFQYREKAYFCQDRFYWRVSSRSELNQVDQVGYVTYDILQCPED
pIC50: −log10 of the molar value.
Entries and their pIC50 values follow.

- cpd smiles: "Cc1nc2ccc3sc(Nc4cc(S(N)(=O)=O)ccc4OC(C)C)nc3c2n1C"
  censoring qualifier: "="
  pIC50: 6.30
- cpd smiles: "COc1ccc(C#N)cc1Nc1nc2c(ccc3cnccc32)s1"
  censoring qualifier: "<"
  pIC50: 4.70
- cpd smiles: "COc1ccc(OC)c(Nc2nc3c(ccc4nc(N)sc43)s2)c1"
  censoring qualifier: "="
  pIC50: 5.92
- cpd smiles: "Cc1nc2c(s1)-c1nc(Nc3cc(C(N)=O)ccc3OC(C)C)sc1CC2"
  censoring qualifier: "="
  pIC50: 5.96
- cpd smiles: "Cc1nc2ccc3sc(Nc4cc(C(N)=O)ccc4OC(C)C)nc3c2s1"
  censoring qualifier: "="
  pIC50: 6.38
- cpd smiles: "COc1ccccc1Nc1nc2c(ccc3c2ncn3C)s1"
  censoring qualifier: "="
  pIC50: 6.82
- cpd smiles: "CCc1ccccc1Nc1nc2c(ccc3c2ncn3C)s1"
  censoring qualifier: "="
  pIC50: 5.96
- cpd smiles: "CCn1c(C)nc2ccc3sc(Nc4cnccc4OC(C)C)nc3c21"
  censoring qualifier: "="
  pIC50: 7.18
- cpd smiles: "CC(C)Oc1ccc(C(N)=O)cc1Nc1nc2c(ccc3c2ncn3C)s1"
  censoring qualifier: "="
  pIC50: 7.04
- cpd smiles: "COc1ccc(S(=O)(=O)N2CCCCC2)cc1Nc1nc2c(ccc3c2ncn3C)s1"
  censoring qualifier: "="
  pIC50: 6.13
- cpd smiles: "COc1ccc(S(C)(=O)=O)cc1Nc1nc2c(ccc3c2cnn3C)s1"
  censoring qualifier: "="
  pIC50: 6.89
- cpd smiles: "COc1ccc(S(C)(=O)=O)cc1Nc1nc2c(ccc3cnn(C)c32)s1"
  censoring qualifier: "="
  pIC50: 6.47
- cpd smiles: "CCOc1ccccc1Nc1nc2c(ccc3c2ncn3C)s1"
  censoring qualifier: "="
  pIC50: 6.51
- cpd smiles: "COc1ccc(Br)cc1Nc1nc2c(ccc3c2ncn3C)s1"
  censoring qualifier: "="
  pIC50: 6.52
- cpd smiles: "COc1ccccc1Nc1nc2c(ccc3c2cnn3C)s1"
  censoring qualifier: "="
  pIC50: 6.29
